Data origin, for the record: the supplement of paper PMC11208160

recombinant UMI read abundance (log10) by entry:
# assay_remarks: recombinant UMI read abundance after kanamycin selection (control-corrected) (log10(CPM+1)); higher = more efficient recombination; extreme values may be limits of the assay; sequences stand for … in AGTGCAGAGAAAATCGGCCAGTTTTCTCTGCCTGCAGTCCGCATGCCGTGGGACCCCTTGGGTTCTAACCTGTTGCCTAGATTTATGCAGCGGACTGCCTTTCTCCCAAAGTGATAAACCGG…AGGTTGGTTTCACT; site = the 11-nt donor;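 also: IS621 bridge recombinase in Escherichia coli cells against a fixed T5 target plasmid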

sequence_text: TCGGTACCATGGACCGGTTTTCCCGGTAATCCGTATTTGCC (site TCGGTACCTGG)
recombinant UMI read abundance (log10): 0

sequence_text: CTAGTATCATGGACCGGTTTTCCCGGTAATCCGTATTTGGC (site CTAGTATCTGT)
recombinant UMI read abundance (log10): 2.76

sequence_text: GAGGTACCATGGACCGGTTTTCCCGGTAATCCGTATTTGTA (site GAGGTACCTTA)
recombinant UMI read abundance (log10): 0.00435

sequence_text: ATAGTACCATGGACCGGTTTTCCCGGTAATCCGTATTTGAC (site ATAGTACCTGT)
recombinant UMI read abundance (log10): 0

sequence_text: CAGTCGACATGGACCGGTTTTCCCGGTAATCCGTATTTGGG (site CAGTCGTCTCC)
recombinant UMI read abundance (log10): 0.151

sequence_text: GTTTGCCCATGGACCGGTTTTCCCGGTAATCCGTATTTGAT (site GGTTGCCCTAT)
recombinant UMI read abundance (log10): 0.018

sequence_text: GAAGAATCATGGACCGGTTTTCCCGGTAATCCGTATTTGTT (site GAAGAGTCTAA)
recombinant UMI read abundance (log10): 1.59

sequence_text: CACTTGGCATGGACCGGTTTTCCCGGTAATCCGTATTTGGA (site CACTTCGCTTC)
recombinant UMI read abundance (log10): 0.0367

sequence_text: CTCCCTACATGGACCGGTTTTCCCGGTAATCCGTATTTGAG (site CTCTCTACTCT)
recombinant UMI read abundance (log10): 0.00795
